# TARGET OF ASSAY: D(3) dopamine receptor (Homo sapiens)
# TEST: qHTS of D3 Dopamine Receptor Antagonist: qHTS
# CONDITION DESCRIPTION: D3R cells, DiscoveRx beta-arrestin luminescence, antagonist mode
In all, about 360,000 compounds went through this assay and about 9,100 (2.5%) were called active. Inconclusive results (about 4%) are left out. No stated cut-off is given here; in the data, active means max response below about -50%; inconclusive means no clear call, values can overlap the other calls; inactive means above that. Many of the other results were omitted from the sample, so actives are more common in it than they were.
The reply should name one outcome from active, inactive

> print(dat)
                                   molecule                        target.of.assay  label.value
1  CCOc1ccc(NS(=O)(=O)c2ccc(C(=O)NC3CCN(Cc4ccccc4)CC3)cc2)cc1  D(3) dopamine receptor (Homo sapiens)       active
2  CCn1cc(C(=O)NCCCN2CCCCCC2)c(=O)c2cc(S(=O)(=O)N3CCc4ccccc4C3)ccc21  D(3) dopamine receptor (Homo sapiens)     inactive
3  CCc1cc(C(=O)c2ccc(OC)cc2)c(NC(=O)CN2CCN(C)CC2)s1  D(3) dopamine receptor (Homo sapiens)     inactive
4  O=C(N/N=C/c1ccc(Cl)cc1)c1nc2ccc([N+](=O)[O-])cc2c(=O)[nH]1  D(3) dopamine receptor (Homo sapiens)     inactive
5  CCC(=O)c1ccc(OCC(O)CN2CC(C)OC(C)C2)cc1 (stereo unspecified)  D(3) dopamine receptor (Homo sapiens)       active

**Q:** Test call, this molecule: `O=c1[nH][nH]c2c1[C@H](c1ccc(Cl)cc1)O[C@H](CCc1ccccc1)C2`
**A:** inactive

**Q:** Per the records of this test, what outcome belongs to `CCOCCCNCc1ccc(OCc2ccc(F)cc2)c(OC)c1` ?
**A:** inactive

**Q:** Identify the outcome logged in this assay for the molecule shown: `CC(C)(C)OC(=O)N1CCN(C(=O)c2[nH]c(C(F)(F)F)nc2-c2ccccc2)CC1`
**A:** inactive

**Q:** Field: outcome | Entry: `CC(C)C[C@H]1CN([C@@H](Cc2ccccc2)CN2CCC[C@@H]2CN2C(=O)C(=O)NC[C@@H]2Cc2ccc(O)cc2)C(=O)C(=O)N1CCc1ccccc1`
**A:** inactive

**Q:** # outcome recorded in this test, key = `Cc1nnc(SCC(=O)Nc2cccc(N)c2)n1-c1ccccc1`
**A:** inactive

**Q:** Recorded test call requested for `CN1OC[C@@H]2CN(S(=O)(=O)c3cccc4ccccc34)[C@H](c3ccc(N4CCCCC4)cc3)C[C@@H]21`
**A:** inactive

**Q:** So what was the verdict on CCCNC(=O)C1(C)CCN1C(=O)Cc1ccc(-c2ccccc2)cc1 (stereo unspecified) in this test?
**A:** inactive

**Q:** How was `O=S(=O)(Nc1ccccc1Cl)c1cccc2nsnc12` classified in this test?
**A:** inactive

**Q:** What is the recorded call for this molecule in the test? `COc1cc(C=NC2CCCCC2)ccc1O`
**A:** inactive

**Q:** // param item: `Nc1[nH]c(C(=O)c2ccccc2)c(-c2ccc(Br)cc2)c1C(=O)NC1CC1` ; yields the recorded call
**A:** inactive

**Q:** // return assay outcome for `CCOc1ccc(CC(=O)NC2CCN(Cc3ccccc3)CC2)cc1`
**A:** inactive

**Q:** # outcome recorded in this test, key = O=C(NCC1CCCO1)c1ccc(S(=O)(=O)Nc2ccc(F)cc2)cc1 (stereo unspecified)
**A:** inactive
